# TEST TARGET: Acetylcholinesterase (Electrophorus electricus)
# Sequence (O42275 whole entry): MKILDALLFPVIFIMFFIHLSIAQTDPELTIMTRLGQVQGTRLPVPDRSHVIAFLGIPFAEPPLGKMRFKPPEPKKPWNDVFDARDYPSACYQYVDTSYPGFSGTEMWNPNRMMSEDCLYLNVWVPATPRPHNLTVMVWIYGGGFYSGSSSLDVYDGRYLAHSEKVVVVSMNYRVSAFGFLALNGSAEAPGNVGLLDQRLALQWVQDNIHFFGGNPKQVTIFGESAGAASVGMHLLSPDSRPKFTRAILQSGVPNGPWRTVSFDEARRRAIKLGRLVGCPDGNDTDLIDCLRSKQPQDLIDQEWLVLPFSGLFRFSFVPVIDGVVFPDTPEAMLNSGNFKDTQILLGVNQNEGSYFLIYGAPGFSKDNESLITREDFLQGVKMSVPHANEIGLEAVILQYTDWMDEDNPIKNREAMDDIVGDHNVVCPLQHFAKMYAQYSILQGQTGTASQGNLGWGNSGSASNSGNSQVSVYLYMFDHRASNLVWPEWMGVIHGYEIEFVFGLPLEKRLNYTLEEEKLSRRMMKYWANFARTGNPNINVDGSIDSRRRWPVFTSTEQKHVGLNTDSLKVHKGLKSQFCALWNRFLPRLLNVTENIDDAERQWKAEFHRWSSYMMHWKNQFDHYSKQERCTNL
# TEST METHOD NOTES: Inhibition of Electrophorus electricus AChE using acetylthiocholine iodide as substrate preincubated for 20mins before the addition of substrate by Ellman's method
# MEASUREMENT SETUP: read-out: Ki
pKi: −log10 of the molar value.
MEASURED PROPERTY: pKi

[[record]]
substance_smiles = "CCCOC(=O)[C@]12CCC(C)(C)C[C@H]1C1=CC[C@@H]3[C@@]4(C)C[C@@H](O)[C@H](O)C(C)(C)[C@@H]4CC[C@@]3(C)[C@]1(C)CC2"
measured_property = "pKi"
comparison_operator = "="
reported_value = 4.77

[[record]]
substance_smiles = "CC1(C)CC[C@]2(C(N)=O)CC[C@]3(C)C(=CC[C@@H]4[C@@]5(C)C[C@@H](O)[C@H](O)C(C)(C)[C@@H]5CC[C@]43C)[C@@H]2C1"
measured_property = "pKi"
comparison_operator = "<"
reported_value = 4.70

[[record]]
substance_smiles = "CC1(C)CC[C@]2(C(=O)NCc3ccccc3)CC[C@]3(C)C(=CC[C@@H]4[C@@]5(C)C[C@@H](OC(=O)CCl)[C@H](OC(=O)CCl)C(C)(C)[C@@H]5CC[C@]43C)[C@@H]2C1"
measured_property = "pKi"
comparison_operator = "="
reported_value = 4.60

[[record]]
substance_smiles = "CC(=O)O[C@@H]1C[C@]2(C)[C@H]3CC=C4[C@@H]5CC(C)(C)CC[C@]5(C(=O)O)CC[C@@]4(C)[C@]3(C)CC[C@H]2C(C)(C)[C@H]1OC(C)=O"
measured_property = "pKi"
comparison_operator = "<"
reported_value = 5.00

[[record]]
substance_smiles = "CC1(C)CC[C@]2(C(=O)OCCCCCl)CC[C@]3(C)C(=CC[C@@H]4[C@@]5(C)C[C@@H](O)[C@H](O)C(C)(C)[C@@H]5CC[C@]43C)[C@@H]2C1"
measured_property = "pKi"
comparison_operator = "="
reported_value = 5.77


Where these numbers come from: ChEMBL document CHEMBL3779826
